The reported numbers originate from the supplement of paper PMC6555819.

Tested on: PPARg:RXRa 30nM:10nM, anti-RXR (NR concentration 30 nM, RXRa partner concentration 10 nM)
assay notes: PBM binding z-score (relative to random genomic background probes); higher = stronger binding; sequences stand for … in GC…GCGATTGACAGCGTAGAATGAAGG
measurement type: PBM binding z-score
Please reply with the value in numeric form only.

Reference set, count: 10
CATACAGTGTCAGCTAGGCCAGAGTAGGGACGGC | -0.315
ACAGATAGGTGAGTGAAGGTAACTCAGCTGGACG | -0.17
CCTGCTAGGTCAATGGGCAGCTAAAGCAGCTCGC | 0.64
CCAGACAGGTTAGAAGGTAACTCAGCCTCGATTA | -0.236
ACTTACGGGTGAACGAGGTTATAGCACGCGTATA | 0.333
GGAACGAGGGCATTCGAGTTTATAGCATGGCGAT | -0.0706
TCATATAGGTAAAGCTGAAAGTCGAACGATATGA | 3.45
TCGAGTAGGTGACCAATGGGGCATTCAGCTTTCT | 1.01
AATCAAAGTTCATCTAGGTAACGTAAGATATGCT | 2.04
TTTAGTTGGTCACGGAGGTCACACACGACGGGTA | 2.06

Now turn to the next sequence.
Req: Supply measured PBM binding z-score of `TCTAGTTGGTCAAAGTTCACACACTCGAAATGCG` in your reply.
Resp: 8.79
